System: rodent lifetime carcinogenesis bioassay, tumor incidence TD50
Experiment: carcinogenic potency in animals, long-term in vivo studies, CPDB compilation (AID 1745844)
Details: rat; strain Fischer 344; males; inhaled; site: lung; lesion: alveolar/bronchiolar adenoma; dosed 105 weeks; study length 105 weeks
Attribute Measured: TD50 (mg/kg/day)
Enter your answer as a number in mg/kg/day; do not include the unit.

// field: TD50; key: [O]=[Mo](=[O])=[O] ; value = 31.6

====

Test system: rodent lifetime carcinogenesis bioassay, tumor incidence TD50
Experiment: carcinogenic potency in animals, long-term in vivo studies, CPDB compilation (AID 1745844)
Details: rat; strain Wistar/FDRL; both sexes; in feed; site: liver; lesion: hyperplastic nodule; dosed 104 weeks; study length 104 weeks
Attribute Measured: TD50

// field: TD50; key: CC(COc1ccc(C(C)(C)C)cc1)OS(=O)OCCCl (stereo unspecified) ; value = 79.9 mg/kg/day

====

Tested on: rodent lifetime carcinogenesis bioassay, tumor incidence TD50
Assay: carcinogenic potency in animals, long-term in vivo studies, CPDB compilation (AID 1745844)
Details: rat; strain Wistar; males; in feed; site: adrenal medulla; lesion: pheochromocytoma; dosed 106 weeks; study length 106 weeks
Attribute Measured: TD50
Record the result as a number with its unit.

// field: TD50; key: CCC[CH2][Sn]([CH2]CCC)([CH2]CCC)[O][Sn]([CH2]CCC)([CH2]CCC)[CH2]CCC ; value = 1.93 mg/kg/day

====

Tested on: rodent lifetime carcinogenesis bioassay, tumor incidence TD50
Test: carcinogenic potency in animals, long-term in vivo studies, CPDB compilation (AID 1745844)
Details: mouse; strain Swiss; females; in drinking water; site: esophagus; lesion: acanthoma; dosed 78 weeks; study length 151 weeks
Attribute Measured: TD50 (mg/kg/day)
Enter your answer as a number in mg/kg/day; do not include the unit.

Observed TD50, rodent lifetime carcinogenesis bioassay, tumor incidence TD50, C=COC(C)=O : 36000

====

Tested on: rodent lifetime carcinogenesis bioassay, tumor incidence TD50
Assay: carcinogenic potency in animals, long-term in vivo studies, CPDB compilation (AID 1745844)
Conditions: mouse; strain B6C3F1; females; in feed; site: lung; lesion: alveolar/bronchiolar adenoma + alveolar/bronchiolar carcinoma; dosed 90 weeks; study length 105 weeks
Attribute Measured: TD50

Observed TD50, rodent lifetime carcinogenesis bioassay, tumor incidence TD50, CC(=O)Nc1ccc(C(=O)CCl)cc1 : 3020 mg/kg/day

====

Test system: rodent lifetime carcinogenesis bioassay, tumor incidence TD50
Assay: carcinogenic potency in animals, long-term in vivo studies, CPDB compilation (AID 1745844)
Details: rat; strain Wistar; males; inhaled; site: lung; lesion: alveolar/bronchiolar adenoma; dosed 78 weeks; study length 130 weeks
Attribute Measured: TD50 (mg/kg/day)
Enter your answer as a number in mg/kg/day; do not include the unit.

Observed TD50, rodent lifetime carcinogenesis bioassay, tumor incidence TD50, [Cl][Cd][Cl] : 0.0804

====

System: rodent lifetime carcinogenesis bioassay, tumor incidence TD50
Assay: carcinogenic potency in animals, long-term in vivo studies, CPDB compilation (AID 1745844)
Settings: rat; strain Fischer 344; males; in drinking water; site: lung; lesion: adenosquamous carcinoma; dosed 112 weeks; study length 112 weeks
Attribute Measured: TD50 (mg/kg/day)
Enter your answer as a number in mg/kg/day; do not include the unit.

// field: TD50; key: CN(CCCC(O)c1cccnc1)N=O (stereo unspecified) ; value = 0.577
